target: YFV NS2B/NS3pro (Yellow fever virus); assay: biochemical
Sequence (Q1X881 1402-1449 limits assumed): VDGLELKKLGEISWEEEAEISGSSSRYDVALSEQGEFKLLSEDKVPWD
Sequence (Q1X881 1491-1660 limits assumed): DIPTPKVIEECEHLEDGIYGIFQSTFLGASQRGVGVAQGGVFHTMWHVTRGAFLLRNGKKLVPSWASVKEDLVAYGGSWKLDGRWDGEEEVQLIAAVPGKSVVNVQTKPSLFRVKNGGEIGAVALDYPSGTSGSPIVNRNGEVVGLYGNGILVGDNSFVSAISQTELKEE
Reported pIC50 values for the following compounds.
Value format note: pIC50 is -log10 of concentration (mol/L); just state the number.

[[record]]
compound = "Oc1cc(O)c2c(c1)O[C@H](c1cc(O)c(O)c(O)c1)[C@H](O)C2 [EGC, epigallocatechin]"
endpoint_name = "pIC50"
numeric_value = 4.72

[[record]]
compound = "CC(=O)Oc1cc(OC(C)=O)c2c(c1)O[C@H](c1cc(OC(C)=O)c(OC(C)=O)c(OC(C)=O)c1)[C@H](OC(=O)c1cc(OC(C)=O)c(OC(C)=O)c(OC(C)=O)c1)C2 [AcEGCG, EGCG octaacetate]"
endpoint_name = "pIC50"
numeric_value = 4.41


Next compound, please.
Per the record, O=C(O[C@@H]1Cc2c(O)cc(O)cc2O[C@@H]1c1cc(O)c(O)c(O)c1)c1cc(O)c(O)c(O)c1 [EGCG, Epigallocatechin gallate] has pIC50 of 5.10
